This listing pairs compounds with measured IC50.
Subject Of Test: human PDHK2 (hPDHK2) (Homo sapiens (Human))
Experiment Notes: Inhibitory action of PDHK activity in vitro (kinase reaction, residual PDH activity measured)
Type: biochemical
Condition Parameters: PDHK inhibitory activity, class symbol of IC50

Compound: CNCCCOc1ccc2c(c1)C(O)(C(F)(F)F)c1ccccc1-2 (centres unmarked)
Subject Of Test: human PDHK2 (hPDHK2) (Homo sapiens (Human))
IC50: 0.1 to 1 µM

Compound: CNCCOc1ccc2c(c1)C(O)(C(F)(F)F)c1ccccc1-2 (centres unmarked)
Subject Of Test: human PDHK2 (hPDHK2) (Homo sapiens (Human))
IC50: > 1 µM

Compound: O=C(O)C1CCN(c2ccc3c(c2)C(O)(C(F)(F)F)c2ccccc2-3)CC1 (centres unmarked)
Subject Of Test: human PDHK2 (hPDHK2) (Homo sapiens (Human))
IC50: > 1 µM

Compound: CCOC(=O)CCCCOc1ccc2c(c1)C(O)(C(F)(F)F)c1ccccc1-2 (centres unmarked)
Subject Of Test: human PDHK2 (hPDHK2) (Homo sapiens (Human))
IC50: 0.1 to 1 µM

Compound: CN(C)C(=O)C1CCN(C(=O)c2ccc3c(c2)C(O)(C(F)(F)F)c2ccccc2-3)C1 (centres unmarked)
Subject Of Test: human PDHK2 (hPDHK2) (Homo sapiens (Human))
IC50: 0.1 to 1 µM

Compound: CC(=O)N(C)CCOc1cc(-c2cnn(C)c2)c2c(c1)C(O)(C(F)(F)F)c1ccccc1-2 (centres unmarked)
Subject Of Test: human PDHK2 (hPDHK2) (Homo sapiens (Human))
IC50: < 0.1 µM

Compound: CCC(=O)Nc1ccc2c(c1)-c1ccccc1C2(O)C(F)(F)F (centres unmarked)
Subject Of Test: human PDHK2 (hPDHK2) (Homo sapiens (Human))
IC50: > 1 µM

Compound: CNC(=O)COc1cc(Br)c2c(c1)C(O)(C(F)(F)F)c1ccccc1-2 (centres unmarked)
Subject Of Test: human PDHK2 (hPDHK2) (Homo sapiens (Human))
IC50: 0.1 to 1 µM

Compound: OC1(C(F)(F)F)c2ccccc2-c2c(Br)cccc21 (centres unmarked)
Subject Of Test: human PDHK2 (hPDHK2) (Homo sapiens (Human))
IC50: > 1 µM

Compound: CC(C)(C)C(=O)N1CCN(c2cc(-c3cccnc3)c3c(c2)C(O)(C(F)(F)F)c2ccccc2-3)CC1 (centres unmarked)
Subject Of Test: human PDHK2 (hPDHK2) (Homo sapiens (Human))
IC50: < 0.1 µM

Compound: CN(C)C(=O)COC1CN(C(=O)c2ccc3c(c2)C(O)(C(F)(F)F)c2ccccc2-3)C1 (centres unmarked)
Subject Of Test: human PDHK2 (hPDHK2) (Homo sapiens (Human))
IC50: 0.1 to 1 µM

Compound: O=C(c1cc(Cl)c2c(c1)C(O)(C(F)(F)F)c1ccccc1-2)N1CC(OCCO)C1 (centres unmarked)
Subject Of Test: human PDHK2 (hPDHK2) (Homo sapiens (Human))
IC50: < 0.1 µM

Compound: NC(=O)COc1cc(-c2cnn(CCO)c2)c2c(c1)C(O)(C(F)(F)F)c1ccccc1-2 (single isomer, unassigned)
Subject Of Test: human PDHK2 (hPDHK2) (Homo sapiens (Human))
IC50: < 0.1 µM

Compound: CNC(=O)c1ccc(-c2ccc3c(c2)C(O)(C(F)(F)F)c2ccccc2-3)cc1 (centres unmarked)
Subject Of Test: human PDHK2 (hPDHK2) (Homo sapiens (Human))
IC50: 0.1 to 1 µM

Compound: OC1(C(F)(F)F)c2ccccc2-c2c(-c3cn[nH]c3)cccc21 (centres unmarked)
Subject Of Test: human PDHK2 (hPDHK2) (Homo sapiens (Human))
IC50: 0.1 to 1 µM

Compound: CC(=O)N(C)Cc1ccc2c(c1)C(O)(C(F)(F)F)c1ccccc1-2 (centres unmarked)
Subject Of Test: human PDHK2 (hPDHK2) (Homo sapiens (Human))
IC50: > 1 µM

Compound: CC(C)(C)COc1ccc2c(c1)C(O)(C(F)(F)F)c1ccccc1-2 (centres unmarked)
Subject Of Test: human PDHK2 (hPDHK2) (Homo sapiens (Human))
IC50: > 1 µM

Compound: COC(=O)Nc1cccc2c1-c1ccccc1C2(O)C(F)(F)F (centres unmarked)
Subject Of Test: human PDHK2 (hPDHK2) (Homo sapiens (Human))
IC50: > 1 µM

Compound: CNC(=O)CCCOc1ccc2c(c1)C(O)(C(F)(F)F)c1ccccc1-2 (centres unmarked)
Subject Of Test: human PDHK2 (hPDHK2) (Homo sapiens (Human))
IC50: > 1 µM

Compound: O=C(COc1ccc2c(c1)C(O)(C(F)(F)F)c1ccccc1-2)N1CCC(CO)CC1 (centres unmarked)
Subject Of Test: human PDHK2 (hPDHK2) (Homo sapiens (Human))
IC50: 0.1 to 1 µM

Compound: CN(c1ccccc1)c1ccc2c(c1)C(O)(C(F)(F)F)c1ccccc1-2 (centres unmarked)
Subject Of Test: human PDHK2 (hPDHK2) (Homo sapiens (Human))
IC50: > 1 µM

Compound: O=C(O)CCCOc1ccc2c(c1)C(O)(C(F)(F)F)c1ccccc1-2 (centres unmarked)
Subject Of Test: human PDHK2 (hPDHK2) (Homo sapiens (Human))
IC50: > 1 µM

Compound: N#Cc1ccc(-c2ccc3c(c2)C(O)(C(F)(F)F)c2ccccc2-3)cc1 (centres unmarked)
Subject Of Test: human PDHK2 (hPDHK2) (Homo sapiens (Human))
IC50: 0.1 to 1 µM

###

Subject Of Test: human PDHK2 (hPDHK2) (Homo sapiens (Human), UniProt Q15119)
Experiment Notes: Inhibitory action of PDHK activity in vitro (kinase reaction, residual PDH activity measured)
Type: biochemical
Condition Parameters: PDHK inhibitory activity, class symbol of IC50
This listing pairs compounds with measured IC50.
Parameter: IC50

Compound: CN(C)C(=O)c1ccc2c(c1)C(O)(C(F)(F)F)c1ccccc1-2 (centres unmarked) [compound 31]
Subject Of Test: human PDHK2 (hPDHK2) (Homo sapiens (Human), UniProt Q15119)
Parameter: IC50
Value Reported: > 1000 nM

Compound: O=C(O)CCCCOc1cc(Cl)c2c(c1)C(O)(C(F)(F)F)c1ccccc1-2 (centres unmarked) [compound 384]
Subject Of Test: human PDHK2 (hPDHK2) (Homo sapiens (Human), UniProt Q15119)
Parameter: IC50
Value Reported: 100 to 1000 nM

Compound: O=C(COc1ccc2c(c1)C(O)(C(F)(F)F)c1ccccc1-2)N1CCCCC1 (centres unmarked) [compound 361]
Subject Of Test: human PDHK2 (hPDHK2) (Homo sapiens (Human), UniProt Q15119)
Parameter: IC50
Value Reported: 100 to 1000 nM

Compound: OC1(C(F)(F)F)c2ccccc2-c2c(-c3cncnc3)cc(Cl)cc21 (centres unmarked) [compound 335]
Subject Of Test: human PDHK2 (hPDHK2) (Homo sapiens (Human), UniProt Q15119)
Parameter: IC50
Value Reported: < 100 nM

Compound: Cc1cc(-c2cnn(CC(=O)O)c2)c2c(c1)[C@@](O)(C(F)(F)F)c1ccccc1-2 (stereo in doubt) [compound 550]
Subject Of Test: human PDHK2 (hPDHK2) (Homo sapiens (Human), UniProt Q15119)
Parameter: IC50
Value Reported: < 100 nM

Compound: CC(=O)N1CCN(c2ccc3c(c2)C(O)(C(F)(F)F)c2ccccc2-3)CC1 (centres unmarked) [compound 165]
Subject Of Test: human PDHK2 (hPDHK2) (Homo sapiens (Human), UniProt Q15119)
Parameter: IC50
Value Reported: 100 to 1000 nM

Compound: OC1(C(F)(F)F)c2ccccc2-c2ccc(-c3cccnc3)cc21 (centres unmarked) [compound 102]
Subject Of Test: human PDHK2 (hPDHK2) (Homo sapiens (Human), UniProt Q15119)
Parameter: IC50
Value Reported: 100 to 1000 nM

Compound: Cc1noc(-c2cccc3c2-c2ccccc2C3(O)C(F)(F)F)n1 (centres unmarked) [compound 142]
Subject Of Test: human PDHK2 (hPDHK2) (Homo sapiens (Human), UniProt Q15119)
Parameter: IC50
Value Reported: 100 to 1000 nM

Compound: CC1CCCN1C(=O)c1ccc2c(c1)C(O)(C(F)(F)F)c1ccccc1-2 (centres unmarked) [compound 77]
Subject Of Test: human PDHK2 (hPDHK2) (Homo sapiens (Human), UniProt Q15119)
Parameter: IC50
Value Reported: > 1000 nM

Compound: Cn1cc(-c2cc(N3CCC(C(=O)O)CC3)cc3c2-c2ccccc2C3(O)C(F)(F)F)cn1 (centres unmarked) [compound 558]
Subject Of Test: human PDHK2 (hPDHK2) (Homo sapiens (Human), UniProt Q15119)
Parameter: IC50
Value Reported: < 100 nM

Compound: Cc1cc(Cl)c2c(c1)[C@](O)(C(F)(F)F)c1ccccc1-2 (stereo in doubt) [compound 520]
Subject Of Test: human PDHK2 (hPDHK2) (Homo sapiens (Human), UniProt Q15119)
Parameter: IC50
Value Reported: > 1000 nM

Compound: OC1(C(F)(F)F)c2ccccc2-c2cccc(Cl)c21 (centres unmarked) [compound 8]
Subject Of Test: human PDHK2 (hPDHK2) (Homo sapiens (Human), UniProt Q15119)
Parameter: IC50
Value Reported: > 1000 nM

Compound: CN(CCCO)C(=O)c1ccc2c(c1)C(O)(C(F)(F)F)c1ccccc1-2 (centres unmarked) [compound 327]
Subject Of Test: human PDHK2 (hPDHK2) (Homo sapiens (Human), UniProt Q15119)
Parameter: IC50
Value Reported: > 1000 nM

Compound: OC1(C(F)(F)F)c2ccccc2-c2ccc(-c3cccs3)cc21 (centres unmarked) [compound 144]
Subject Of Test: human PDHK2 (hPDHK2) (Homo sapiens (Human), UniProt Q15119)
Parameter: IC50
Value Reported: > 1000 nM

Compound: OCC(CO)n1cc(-c2cc(F)cc3c2-c2ccccc2C3(O)C(F)(F)F)cn1 (single isomer, unassigned; (+)) [compound 595]
Subject Of Test: human PDHK2 (hPDHK2) (Homo sapiens (Human), UniProt Q15119)
Parameter: IC50
Value Reported: < 100 nM

Compound: O[C@H]1CCN(CCOc2ccc3c(c2)C(O)(C(F)(F)F)c2ccccc2-3)C1 (some centres unmarked) [compound 389]
Subject Of Test: human PDHK2 (hPDHK2) (Homo sapiens (Human), UniProt Q15119)
Parameter: IC50
Value Reported: 100 to 1000 nM

Compound: CNC(=O)COc1ccc2c(c1)C(O)(C(F)(F)F)c1ccccc1-2 (centres unmarked) [compound 289]
Subject Of Test: human PDHK2 (hPDHK2) (Homo sapiens (Human), UniProt Q15119)
Parameter: IC50
Value Reported: 100 to 1000 nM

Compound: CC(=O)N(C)CCOc1ccc2c(c1)C(O)(C(F)(F)F)c1ccccc1-2 (centres unmarked) [compound 326]
Subject Of Test: human PDHK2 (hPDHK2) (Homo sapiens (Human), UniProt Q15119)
Parameter: IC50
Value Reported: 100 to 1000 nM

Compound: OCCn1cc(-c2cc(OCCC34CC5CC(CC(C5)C3)C4)cc3c2-c2ccccc2C3(O)C(F)(F)F)cn1 (centres unmarked) [compound 509]
Subject Of Test: human PDHK2 (hPDHK2) (Homo sapiens (Human), UniProt Q15119)
Parameter: IC50
Value Reported: < 100 nM

Compound: Cn1nnc(-c2cccc3c2-c2ccccc2C3(O)C(F)(F)F)n1 (centres unmarked) [compound 250]
Subject Of Test: human PDHK2 (hPDHK2) (Homo sapiens (Human), UniProt Q15119)
Parameter: IC50
Value Reported: > 1000 nM

Every entry's value here was drawn from patent US8871934B2.
